# Test system: U2OS
# PROTOCOL_DETAILS: cell viability relative to DMSO; higher = less toxic
# TEST_SETTINGS: 72 h; 1 nM
Reported cell viability values for a set of compounds
Just the number please, in %, no unit attached.

Check out these entries, answers already filled in.
INSERT INTO results (compound, metric, value_unit, experimental_result) VALUES
  ('CC(=O)O[C@@]12CO[C@@H]1C[C@H](O)[C@@]1(C)C(=O)[C@H](O)C3=C(C)[C@@H](O)C[C@@](O)([C@@H](OC(=O)c4ccccc4)[C@H]21)C3(C)C', 'cell viability', '%', 98.4),
  ('COC(=O)C1=C(C)NC(C)=C(C(=O)OC/C=C/c2ccccc2)C1c1cccc([N+](=O)[O-])c1 (centres undefined)', 'cell viability', '%', 98.1),
  ('c1ccc(C(NCc2cccnc2)(c2ccccc2)c2ccccc2)cc1', 'cell viability', '%', 96.9);

Continue with the compound presented below.
Name the recorded cell viability for N=C1N[C@H]2[C@H](CS[C@H]2CCCCC(=O)O)N1 .
102

---

# Tested on: U2OS
# PROTOCOL_DETAILS: cell viability relative to DMSO; higher = less toxic
# TEST_SETTINGS: 72 h; 1 nM
METRIC: cell viability (%)
// note: answer is a bare numeric in %

Study these solved cases before continuing.
INSERT INTO measurements (molecule, value_unit, experimental_result) VALUES
  ('N=C(Nc1ccccc1)c1cccs1 [LTA]', '%', 99.9),
  ('Clc1ccc(C(Cn2ccnc2)OCc2csc3c(Cl)cccc23)c(Cl)c1 (stereo not drawn) [sertaconazole]', '%', 94.1),
  ('CCO/N=C(\C(=O)N[C@@H]1C(=O)N2C(C(=O)[O-])=C(Sc3nc(-c4cc[n+](C)cc4)cs3)CS[C@H]12)c1nsc(NP(=O)(O)O)n1 [ceftaroline-fosamil]', '%', 103);

Field: next molecule
Name the reported cell viability value associated with the molecule CC1(C)CC[C@]2(C(=O)O)CC[C@]3(C)[C@H](C(=O)C=C4[C@@]5(C)C=C(C#N)C(=O)C(C)(C)[C@@H]5CC[C@]43C)[C@@H]2C1 [bardoxolone]
101

---

# Test system: Caco-2
# PROTOCOL_DETAILS: cell viability relative to DMSO; higher = less toxic
# TEST_SETTINGS: 72 h; 1 nM
METRIC: cell viability (%)
Quick reminder: number only, in %, skip the unit.

INSERT INTO results (compound, metric, experimental_result) VALUES
  ('C=CCN1CC[C@]23c4c5ccc(O)c4O[C@H]2/C(=N/NC(=O)c2ccccc2)CC[C@@]3(O)[C@H]1C5 [naloxone-benzoylhydrazone]', 'cell viability', 91.7),
  ('CNC(=O)c1ccccc1Nc1nc(Nc2ccc(N3CCOCC3)cc2OC)ncc1Cl [NVP-TAE226]', 'cell viability', 96),
  ('Nc1ccc(S(=O)(=O)NC(=O)c2ccccc2)cc1 [sulfabenzamide]', 'cell viability', 92.3),
  ('CC1(C)CC[C@]2(C(=O)O)CC[C@]3(C)[C@H](C(=O)C=C4[C@@]5(C)C=C(C#N)C(=O)C(C)(C)[C@@H]5CC[C@]43C)[C@@H]2C1 [bardoxolone]', 'cell viability', 91.3),
  ('N#CC(c1ccccc1)(c1ccccc1)c1ccccc1Cl [TRAM-39]', 'cell viability', 94.3),
  ('Fc1cc(F)c2c(c1)[C@H]1C=CC[C@H]1C(c1cccnc1)N2 (stereo partly drawn) [Golgicide A]', 'cell viability', 108),
  ('O=C(O)c1cc(=O)[nH]c(=O)[nH]1 [orotic-acid]', 'cell viability', 105),
  ('N=C(N)c1ccc(OCCCCCOc2ccc(C(=N)N)cc2)cc1 [pentamidine]', 'cell viability', 90.1),
  ('CN(C)c1nc(N)c(C(=O)Nc2cccnc2)nc1Cl [ACDPP]', 'cell viability', 87.4),
  ('CC1(C)OC[C@@H](COC(=O)CCc2ccc(OC[C@@H](O)CNCCNC(=O)N3CCOCC3)cc2)O1 [landiolol]', 'cell viability', 111);

Data request, read-out cell viability, for C[C@@H](C1=C(CCN(C)C)Cc2ccccc21)c1ccccn1 (racemic) [dimetindene]
93.1
